- System: EPHB4
- stated-conditions: concentration: 1 μM, replicates: in singlicate; n = 1;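 note: KINOMEscan kinase panel screen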
For each record, check the reported %Inh: if it is below 30% write T, else write F.

CN(C)S(=O)(=O)c1cc(-c2ccc3nccc(-c4cccc(S(N)(=O)=O)c4)c3c2)cnc1N [GSK1669921]; T
C[C@@H](Oc1cc(-n2cnc3cc(-c4ccnc(NCCS(C)(=O)=O)c4)ccc32)sc1C(N)=O)c1ccccc1Cl [GSK907232]; T
CC(C)c1nc(-c2cccc(NS(=O)(=O)c3c(F)cccc3F)c2F)c(-c2ccnc(Nc3ccc(N4CCOCC4)nc3)n2)s1 [GSK2008607]; T

*Q* Given c1ccc(Oc2ccc(Nc3ccnc4cc(-c5ccc(CNCCN6CCOCC6)o5)ccc34)cc2)nc1 [GW567145] , is recorded %Inh strictly lower than 30%?
*A* T

*Q* Also Cn1cc(-c2[nH]c3cc(NC(=O)[C@H](N)C4CCCCC4)cc4c3c2C=NNC4=O)cn1 , if possible.
*A* T

*Q* Also O=C(Nc1ccccc1F)NC1CCN(c2ccnc(Nc3ccc(F)cc3)n2)CC1 [GSK1379800] , if possible.
*A* T

*Q* Also CC(=O)Nc1nc2cnc(Nc3cc(NC(=O)c4cccc(C5(C#N)CC5)c4Cl)ccc3C)nc2s1 , if possible.
*A* F

*Q* Also O=C(Nc1cccc(-c2nn3ncccc3c2-c2ccnc(Nc3ccccc3)n2)c1)c1c(F)cccc1F [GSK198271] , if possible.
*A* T

*Q* Also COc1cccc(C(=O)Nc2cccc(Oc3ccc4nc(NC(=O)C5CC5)cn4n3)c2)c1 , if possible.
*A* F

---

- Test system: CSNK2A2
- stated-conditions: concentration: 1 μM, replicates: in singlicate; n = 1
measurement-type: %Inh (%)
One number for each entry, in %.

# example entries with known answers
Oc1cc(Nc2ccnc3cc(I)ccc23)ccc1F; 0
COc1cc(Nc2ncc3c(C)nc(-c4cc5ccccc5[nH]4)n3n2)cc(OC)c1OC; 99.7
Cn1cc(-c2ccc3c(c2)CCN3C(=O)Cc2cccc(Cl)c2)c2c(N)ncnc21; 30

Field: next molecule
*Q* Bench note: what %Inh did O=C(Nc1cccc(-c2nn3ccccc3c2-c2ccnc(Nc3cccc(C(F)(F)F)c3)n2)c1)c1c(F)cccc1F show?
*A* 2

---

- System: DAPK3
- stated-conditions: concentration: 1 μM, replicates: in singlicate; n = 1
measurement-type: %Inh (%)
Give bare numbers, in %.

# example entries with known answers
COc1cccc(C2=C(Nc3ccc(Cl)c(C(=O)O)c3)C(=O)NC2=O)c1; 99.9
Nc1ncc(-c2cccnc2)c2scc(-c3ccc4c(c3)CCN4C(=O)Cc3ccccc3)c12; 27
COc1ccc(Nc2nccc(N3CCC(NC(=O)Nc4cccc(OC)c4)C3)n2)cc1 (stereo not drawn); 0
CN(C)Cc1ccc(-c2ccc3c(Nc4ccc(Oc5ccccn5)cc4)ccnc3c2)o1; 0
c1ccc(-c2cnc3nccnn23)cc1; 0
Cc1occc1-c1ncc(OC[C@@H](N)Cc2c[nH]c3ccccc23)cc1-c1ccc2[nH]nc(C)c2c1.O=C(O)C(F)(F)F; 2
Cc1cccc(NC(=O)Nc2ccc(Oc3ncnc4ccn(C)c34)cc2)c1; 0
Nc1n[nH]c2cnc(-c3ccccc3)cc12; 27

Batch: %Inh for all items listed.
1. Nc1ncc(-c2ccc3nccc(-c4ccncc4)c3c2)cc1S(=O)(=O)N1CCOCC1
2. COc1cc(Nc2nccc(-c3c(-c4cccc(NC(=O)c5c(F)cccc5F)c4)nn4ncccc34)n2)cc(OC)c1OC
3. FC(F)(F)c1ccc(/C=C/c2cncnc2Nc2ccc3[nH]c(Cc4ccccc4)nc3c2)cc1
4. O=C(Nc1cccc(-c2nn3ccccc3c2-c2ccnc(Nc3cccc(C(F)(F)F)c3)n2)c1)c1c(F)cccc1F

*A*
1. 9
2. 0
3. 11
4. 0

Batch: %Inh for all items listed.
1. O=C(Nc1n[nH]c2cc(-c3ccoc3)ccc12)C1CC1
2. Cn1cc(-c2ccc3c(c2)CCN3C(=O)Cc2cccc(F)c2)c2c(N)ncnc21
3. NCCCC(NC(=O)c1cc(Br)c(-c2ccnc3[nH]ccc23)s1)c1ccccc1.O=C(O)C(F)(F)F.O=C(O)C(F)(F)F (stereo not drawn)
4. O=C(Nc1cccc(Oc2ccc3nc(NC(=O)C4CC4)cn3n2)c1)c1ccccc1C(F)(F)F
5. COc1cc(Nc2nccc(N3CCC(NC(=O)Nc4cccc(C(C)=O)c4)C3)n2)cc(OC)c1OC (stereo not drawn)
6. COc1ccc(Nc2nccc(NCCNC(=O)c3cc4ccccc4s3)n2)cc1
7. CN(C)S(=O)(=O)c1cc(-c2ccc3nccc(-c4cccc(S(N)(=O)=O)c4)c3c2)cnc1N

*A*
[0, 12, 0, 7, 13, 0, 3]

Batch: %Inh for all items listed.
1. Cc1ccc(C(=O)N2CC[C@@H](O)C2)cc1-n1c(C)cc(OCc2ccc(F)cc2F)c(Br)c1=O
2. CNC(=O)c1ccccc1Nc1nc(Nc2ccc(N3CCOCC3)cc2)ncc1Cl.Cl

*A*
[7, 89]

---

Exercise: for every item that follows, state its recorded %Inh.
- Test system: PRKD2
- stated-conditions: concentration: 1 μM, replicates: in singlicate; n = 1
Numbers only, in %.

# example entries with known answers
COc1cccc(-c2ccc3c(NC(=O)C4CC4)n[nH]c3n2)c1; 0
COC(=O)Nc1nc2ccc(Oc3ccc(NC(=O)Nc4cc(C(F)(F)F)ccc4F)cc3)cc2n1C.Cl; 10
CN(c1ccc(NC(=O)Nc2cc(C(F)(F)F)ccc2F)cc1)c1ccnc(Nc2ccc(S(N)(=O)=O)cc2)n1; 10
COc1cccc(NC(=O)NC2CCN(c3ccnc(Nc4cc(OC)c(OC)c(OC)c4)n3)C2)c1 (centres unmarked); 0
C[C@@H]1CC[C@@H](C(=O)Nc2ccccc2)CN1c1cc(-c2ccc3c(N)n[nH]c3c2)nc(N)n1; 23

Batch: %Inh for all items listed.
1. COc1cc2c(cc1OCCN1CCNCC1)ncc1c3ccc(C#N)cc3[nH]c21
2. Cn1cc(-c2[nH]c3cc(NC(=O)[C@H](N)C4CCCCC4)cc4c3c2C=NNC4=O)cn1
3. CCn1c(-c2nonc2N)nc2c(C#CC(C)(C)O)ncc(OCCCCN)c21.O=C(O)C(F)(F)F.O=C(O)C(F)(F)F
4. CC(C)(C)c1ccc2nccc(Nc3cccc(O)c3)c2c1

*A*
1: 0; 2: 0; 3: 23; 4: 6

---

- Tested on: ASK1
- Construct: gene MAP3K5
- stated-conditions: concentration: 1 μM, replicates: in singlicate; n = 1
measurement-type: %Inh (%)
Answers are plain numbers, in %.

# example entries with known answers
COC(=O)Nc1nc2ccc(Oc3ccc(NC(=O)Nc4cc(C(F)(F)F)ccc4F)cc3)cc2n1C.Cl; 40
COc1cc(Nc2nccc(N3CCC(NC(=O)Nc4cccc(C(C)=O)c4)C3)n2)cc(OC)c1OC (centres unmarked); 0

Batch: %Inh for all items listed.
1. Cn1cc(-c2[nH]c3cc(NC(=O)[C@H](N)C4CCCCC4)cc4c3c2C=NNC4=O)cn1
2. O=C(Nc1cccc(-c2nn3ncccc3c2-c2ccnc(Nc3ccccc3)n2)c1)c1c(F)cccc1F
3. COc1cc(Nc2nccc(-c3c(-c4cccc(NC(=O)c5c(F)cccc5F)c4)nn4ncccc34)n2)cc(OC)c1OC

*A*
[0, 0, 0]

---

- Tested on: GRK7
- stated-conditions: concentration: 1 μM, replicates: in singlicate; n = 1
Exercise: for every item that follows, state its recorded %Inh.

# example entries with known answers
COc1ccc(Nc2nccc(N3CCC(NC(=O)Nc4cccc(OC)c4)C3)n2)cc1 (stereo not shown); 0%
Cc1ccc(S(=O)(=O)Nc2ccc(Nc3nccc(Nc4cccc5[nH]ncc45)n3)cc2)cc1; 0%
COC(=O)Nc1nc2cc(Oc3ccc(NC(=O)Nc4cc(C(F)(F)F)ccc4F)cn3)ccc2[nH]1.Cl.Cl; 0%

*Q* Bench note: what %Inh did O=C(Nc1n[nH]c2cc(-c3ccoc3)ccc12)C1CC1 show?
*A* 9%

---

- System: ADCK4
- stated-conditions: concentration: 1 μM, replicates: in singlicate; n = 1
measurement-type: %Inh (%)
Answers are plain numbers, in %.

COc1cc(Nc2nccc(N3CCC(NC(=O)Nc4cccc(C(C)=O)c4)C3)n2)cc(OC)c1OC (stereo not shown); 55
COc1cccc(C(=O)Nc2cccc(Oc3ccc4nc(NC(=O)C5CC5)cn4n3)c2)c1; 39
Cn1cc(-c2[nH]c3cc(NC(=O)[C@H](N)C4CCCCC4)cc4c3c2C=NNC4=O)cn1; 0

*Q* Tell me reported %Inh for CC(=O)N1CCN(c2ccc(Nc3nccc(-c4sc(C(C)C)nc4-c4cccc(NS(=O)(=O)c5cccc(Cl)c5)c4)n3)cn2)CC1 , tested with ADCK4.
*A* 72

---

- Tested on: TBK1
- stated-conditions: concentration: 1 μM, replicates: in singlicate; n = 1
For each record, check the reported %Inh: if it is below 10% write yes (1), else write no (0).

Use these answered entries as a reference point.
c1ccc(-c2cnc3nccnn23)cc1; yes (1)
Cl.Cl.NCC(NC(=O)c1cc(-c2ccccc2)c(-c2ccnc3[nH]ccc23)s1)c1ccccc1 (centres unmarked); no (0)
Cn1cc(-c2ccc3c(c2)CCN3C(=O)Cc2cccc(F)c2)c2c(N)ncnc21; no (0)
Cl.NC(=O)c1cccc(Nc2nccc(Nc3ccc(Oc4c(Cl)cccc4Cl)c(Cl)c3)n2)c1; yes (1)
c1ccc(-c2n[nH]cc2Nc2ccnc3ccccc23)nc1; yes (1)

*Q* Given Fc1ccc(-c2ncn(C3CCNCC3)c2-c2ccnc(Oc3ccc(-c4ccccc4)cc3)n2)cc1 , is recorded %Inh strictly lower than 10%?
*A* yes (1)

*Q* Also Cl.c1ccc(-c2ccc3c(Nc4ccc5[nH]ccc5c4)ccnc3c2)nc1 , if possible.
*A* no (0)

*Q* Also CCc1ccc(-c2ccc3c(c2)-c2c(cnn2C)S(=O)(=O)N3C)cc1 , if possible.
*A* yes (1)

*Q* Also COc1cccc(C2=C(Nc3ccc(Cl)c(C(=O)O)c3)C(=O)NC2=O)c1 , if possible.
*A* no (0)

*Q* Also O=C(NC1CCN(c2ccnc(Nc3ccc(F)cc3)n2)C1)c1cc2ccccc2s1 (centres unmarked) , if possible.
*A* no (0)

*Q* Also Cn1cc(-c2[nH]c3cc(NC(=O)[C@H](N)C4CCCCC4)cc4c3c2C=NNC4=O)cn1 , if possible.
*A* no (0)

*Q* Also Nc1ncc(-c2cccnc2)c2scc(-c3ccc4c(c3)CCN4C(=O)Cc3ccccc3)c12 , if possible.
*A* no (0)

*Q* Also Nc1ncnc2c1nc(-c1ccccc1)n2-c1ccccc1 , if possible.
*A* no (0)
